Origin of the recorded values: the nanobody polyreactivity screen of Harvey et al. (2022)

assay: yeast display, Sf9 membrane polyspecificity reagent, FACS + sequencing; frameworks hold sequencing errors
measuredEndpoint: polyreactivity (PSR sort gate)

// below: answered sequences
INSERT INTO assay_data (monomersequence, result) VALUES
  ('QVQLVESGGGLVQAGGSLRLSCAASGITFKYYAMGWYRQAPGKEREFVASISARGGGTYYADSVKGRFTISRDNAKNTVYLQMNSLKPEDTAVYYCAVDYRYGYFVYVHYEYWGQGTQVTVSS', 'high polyreactivity'),
  ('QVQLVESGGGLVQAGGSLRLSCAASGRIFGCYSMGWYRPAPGKEREEVAAITWSGTSTYYADSVKGRFTISRENAKNTVYLQMNSLQPEDTAVYYCAADSLSGSAPTYYSTLEYWGQGTQVTVSS', 'low polyreactivity'),
  ('QVQLVESGGGLVQAGGSLRLSCAASGFTFRRYTMGWYRQAPGKERELVAAISGSGGSTYYADSVKGRFTISRDNAKNTVYLQMNSLKPEDTAVYYCNAPYLHYVIVFTDYSQRYDYWGQGTQVTVSS', 'high polyreactivity'),
  ('QVQLVESGGGLVQAGGSLRLSCAASGRTFVYYAMGWYRPAPGKERELVAAISRSGSTYYADSVKGRFTISRDNAKNTVYLQMNSLKPEDTAVYYCARPGGPDRTSSPYPYPYGYWGQGTQVTVSS', 'low polyreactivity'),
  ('QVQLVESGGGLVQAGGSLRLSCAASGRTFDRNTMGWYRQAPGKERELVAAISSSGGSTYYADSVKGRFTISRDNAKNTVYLQMNSLKPEDTAVYYCAVLSRQYFRYGYDYWGQGTQVTVSS', 'high polyreactivity');

Q: For the sequence shown here, QVQLVESGGGLVQAGGSLRLSCAASGSTFTPYGMGWYRKAPGKERELVAAITVSGGRTYDADSVKGRFTISRDNAKNTVYLQMNSLKPEDTAVYYCAAVYLRGDGEYDYWGQGTQVTVSS , give the reported polyreactivity (PSR sort gate).
Result: low polyreactivity

Q: For the sequence shown here, QVQLVESGGGLVQAGGSLRLSCAASGSISFINAMGWYRQAPGKERELVAAITPGASTNYADSVKGRFTISRDNAKNTVYLQLNSLKPEDTAVYFCAAGWVSFEDWVLGSYYEYDYWGLGTQVTVSS , give the reported polyreactivity (PSR sort gate).
Result: low polyreactivity

Q: For the sequence shown here, QVQLVESGGGLVQAGGSLRLSCAASGSIFRSNALGWYRQAPGKERELVAAISWSGGRTYYADSVKGRFTISRDNAKNTVSLQMTSLKPEDTAVYYCAVGFRTLHGDYGYWGQGTQVTVSS , give the reported polyreactivity (PSR sort gate).
Result: high polyreactivity

###

assay: yeast display, Sf9 membrane polyspecificity reagent, FACS + sequencing; frameworks hold sequencing errors
measuredEndpoint: polyreactivity (PSR sort gate)

// below: answered sequences
INSERT INTO results (monomersequence, measuredendpoint, result) VALUES
  ('QVQLVESGGGLVQAGGSLRLSCAASGYTFPDYAMGWYRQAPGKERELVADITSAGNTYYADSVKGRFTISRDNAKNTVYLQMNSLKPEDTAVYYCNKDDLWENGISYSSPYRLDHWGQGTQVTVSS', 'polyreactivity (PSR sort gate)', 'low polyreactivity'),
  ('QVQLVESGGGLVQAGGSLRLSCAASGFTFSFYAMGWYRQAPGKERELVAAITWSGGNTYYADSVKGRFTISRDNAKNTVDLQMNSLKPEDTAVYYCAARGPASVRYYYWGQGTQVTVSS', 'polyreactivity (PSR sort gate)', 'high polyreactivity'),
  ('QVQLVESGGGLVQAGGSLRLSCAASGSTFVFYAMGWYRPAPGKERELVASISFRGGSTRYADSVKGRFTISRDNAKNTVYLHMNSLKPEDTAVYYCNARPFYRYYYWGQGTQVTVSS', 'polyreactivity (PSR sort gate)', 'high polyreactivity'),
  ('QVQLVESGGGLVQAGGSLRLSCAASGSIFGYAMGWYRQAPGKERELVAAIRWGGGSTYYADSVKGRFTISRDNAKYNVYLQMNSLKPEDTAVYYCAARVGRQWYDYWGQGTQVTVSS', 'polyreactivity (PSR sort gate)', 'high polyreactivity');

Q: For the sequence shown here, QVQLVESGGGLVQAGGSLRLSCAASGSMIAFYVMGLYRQAPGKERELVAAINRGGTNTYYADSVKGRFTISRDNAKNTVYLQMNSLKPEDTAVYYCAADGDRSAQRYTGYYYWGQGTQVTVSS , give the reported polyreactivity (PSR sort gate).
Result: high polyreactivity

Q: For the sequence shown here, QVQHVESGGGLVQAGGSLRLSCAASGIIFSYNAMGWYRQAPGKERELVAAISSGGRTYYADSVKGRFTISRDNAKNTVYLQMNSLKPEDTAVYYCATTSPHRLYGYYYDYWGQGSQVTVSS , give the reported polyreactivity (PSR sort gate).
Result: high polyreactivity

Q: For the sequence shown here, QVQLVDSGGGLVQAGGSLRLSCAASGRTFTWYAMGWYRQAPGKERELVSAITNGGRTYADSVKGRFTISRDNAKNTVYLQMNSLKPEDTAVYYCAKVQYRGYLPHQRGRERDYDYWGQGTQVTVSS , give the reported polyreactivity (PSR sort gate).
Result: low polyreactivity
